Target: T1, Human ST2-his (human, UniProt Q01638-2 19-328, limits assumed)
T1 construct: Expressed in CHO-K1; The printed range starts at Met1; also called human ST2 fused with a 6-histidine tag at the C-terminus
T1 sequence: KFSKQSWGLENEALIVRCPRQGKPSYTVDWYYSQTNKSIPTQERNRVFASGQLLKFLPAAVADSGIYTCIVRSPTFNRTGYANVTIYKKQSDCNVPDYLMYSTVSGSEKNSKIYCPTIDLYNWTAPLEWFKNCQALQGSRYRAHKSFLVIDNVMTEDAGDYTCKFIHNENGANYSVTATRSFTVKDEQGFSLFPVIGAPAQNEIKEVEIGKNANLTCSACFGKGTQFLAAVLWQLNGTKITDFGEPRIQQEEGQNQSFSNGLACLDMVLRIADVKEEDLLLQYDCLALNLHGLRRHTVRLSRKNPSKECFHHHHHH
Experiment: SPR Biacore X100, ratio of kd at pH 5.5 to kd at pH 7.4
If the reported kd ratio of pH 5.5/pH 7.4 equals or exceeds 3, assign TRUE. If not, assign FALSE.

Is kd ratio of pH 5.5/pH 7.4 for 5888-153-H3L1 (antibody, human IgG4 S228P, kappa, V domains shown, Humanized antibody) VH: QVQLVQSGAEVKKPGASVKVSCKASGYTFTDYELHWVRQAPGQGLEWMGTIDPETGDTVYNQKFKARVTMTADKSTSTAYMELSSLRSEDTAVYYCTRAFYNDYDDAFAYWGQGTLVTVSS VL: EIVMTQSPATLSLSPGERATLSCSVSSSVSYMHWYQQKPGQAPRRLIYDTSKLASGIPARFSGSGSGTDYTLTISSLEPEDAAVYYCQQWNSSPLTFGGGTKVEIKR at or above 3?
FALSE

Test whether the binder 5887-41-H1L0 (antibody, human IgG4 S228P, kappa, V domains shown, Humanized antibody) VH: QVQLQESGPGLVKPSQTLSLTCTVSGYSITSDYAWDWIRQPPGKGLEWIGYIRYSGDTYYNPSLKSRVTISRDTSKNQFSLKLSSVTAADTAVYYCATTMMDTMDYWGQGTLVTVSS VL: DIVLTQSPASLAVSPGQRATITCRASKSVSTSGNSYMHWYQQKPGQPPKLLIYLASNLESGVPARFSGSGSGTDFTLTINPVEANDTANYYCQHSREFPLTFGQGTKLEIKR records kd ratio of pH 5.5/pH 7.4 of 3 or higher.
FALSE

hey, is kd ratio of pH 5.5/pH 7.4 for this one >= 3? Control antibody CNTO7160 (antibody, human IgG4 S228P, kappa, V domains shown, Known anti-ST2 control antibody) VH: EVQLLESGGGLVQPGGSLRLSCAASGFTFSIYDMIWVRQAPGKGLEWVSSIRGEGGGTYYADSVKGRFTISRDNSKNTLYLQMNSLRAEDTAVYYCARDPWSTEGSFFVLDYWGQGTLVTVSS VL: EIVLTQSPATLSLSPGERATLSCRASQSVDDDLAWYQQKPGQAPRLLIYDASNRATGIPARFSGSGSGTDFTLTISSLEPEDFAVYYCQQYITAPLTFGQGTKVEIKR
FALSE

Given the entry 5888-379-H1L0 (antibody, human IgG4 S228P, kappa, V domains shown, Humanized antibody) VH: QVQLVQSGAEVKKPGASVKVSCKASGYTFINYGMNWVRQAPGQRLEWMGWINTYIGEPTYGDNFKGRVTITRDTSASTAYMELSSLRSEDTAVYYCAREGEGFAYWGQGTLVTVSS VL: DIQMTQSPSSLSASVGDRVTITCKSSQSLLYSGNQNNYLAWYQQKPGKVPKLLIYGASTRESGVPSRFSGSGSGTDFTLTISSLQPEDVATYYCQNDHSYPYTFGGGTKVEIKR , answer whether its kd ratio of pH 5.5/pH 7.4 meets or surpasses 3.
TRUE
